- study_system: A1 receptor in DDT1 cells (Mesocricetus auratus)
- Construct: endogenous in cells; host or cells: DDT1 cells (hamster vas deferens smooth muscle cell line): membranes in A1 and A3, whole cells in A4
- method_summary: cAMP assay (SPA) in DDT1 cells, forskolin-induced cAMP
- Type: cell-based, hamster
- condition: rolipram 50 μM, forskolin 5 μM, 10 min 37° C., normalized to the full agonist CPA
quantity_name: Camp (%)
Form entry: value (%) — number only.

compound | quantity_unit | Camp
Cc1ccc(SC[C@H]2O[C@@H](n3cnc4c(N[C@@H]5CCOC5)ncnc43)[C@H](O)[C@@H]2O)cc1 | % | 22

QUERY: What value of measured Camp is listed for COc1ccc(SC[C@H]2O[C@@H](n3cnc4c(N[C@@H]5CCOC5)ncnc43)[C@H](O)[C@@H]2O)cc1 ?
RESULT: −9

QUERY: Reported Camp, compound O[C@@H]1[C@H](O)[C@@H](CSc2ccc(F)cc2)O[C@H]1n1cnc2c(N[C@@H]3CCOC3)ncnc21 : ____
RESULT: 47

QUERY: Returns the measured Camp for the input compound. Input: O[C@@H]1[C@H](O)[C@@H](CSc2ccc(C(F)(F)F)cc2)O[C@H]1n1cnc2c(N[C@@H]3CCOC3)ncnc21
RESULT: 22

====

- study_system: A1 receptor in DDT1 cells (Mesocricetus auratus, UniProt A0A1U8BVR4)
- Construct: endogenous in cells; host or cells: DDT1 cells (hamster vas deferens smooth muscle cell line): membranes in A1 and A3, whole cells in A4
- Sequence (A0A1U8BVR4 1-326): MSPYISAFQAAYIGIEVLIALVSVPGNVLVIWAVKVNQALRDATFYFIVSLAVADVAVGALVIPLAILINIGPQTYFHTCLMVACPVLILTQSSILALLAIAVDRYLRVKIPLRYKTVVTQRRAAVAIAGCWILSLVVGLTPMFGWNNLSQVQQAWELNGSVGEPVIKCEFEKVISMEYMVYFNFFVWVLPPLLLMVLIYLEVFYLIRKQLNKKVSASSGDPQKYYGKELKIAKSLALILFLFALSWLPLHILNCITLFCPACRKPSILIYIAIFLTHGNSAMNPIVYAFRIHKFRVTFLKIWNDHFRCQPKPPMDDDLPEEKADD
- method_summary: cAMP assay (SPA) in DDT1 cells, forskolin-induced cAMP
- Assay type: cell-based, hamster
- condition: rolipram 50 μM, forskolin 5 μM, 10 min 37° C., normalized to the full agonist CPA
quantity_name: Camp (%)
API: value field is a number in %; no unit string.

compound | quantity_name | endpoint_value
OC[C@H]1O[C@@H](n2cnc3c(NC4CCCC4)ncnc32)[C@H](O)[C@@H]1O [CPA, N-6-cyclopentyladenosine, reference compound] | Camp | 107
CCSC[C@H]1O[C@@H](n2cnc3c(N[C@@H]4CCOC4)ncnc32)[C@H](O)[C@@H]1O [Compound 8] | Camp | 37
O[C@@H]1[C@H](O)[C@@H](CSc2ccc(Cl)cc2)O[C@H]1n1cnc2c(N[C@@H]3CCOC3)ncnc21 [Compound 13] | Camp | 30

Let's switch to this compound now.
QUERY: Which Camp value belongs to COc1ccccc1SC[C@H]1O[C@@H](n2cnc3c(N[C@@H]4CCOC4)ncnc32)[C@H](O)[C@@H]1O [Compound 17] ?
RESULT: 18
